- test-summary: Selectivity index, ratio of CC50 for human HepG2 cells in presence of 1% FBS to MIC for Klebsiella pneumoniae ATCC 13883
- Type: toxicity
- run-conditions: read-out: Selectivity Index

- mol-smiles: "COc1cccc2c1-c1ccccc1[I+]2"
  result-modifier: ">"
  selectivity ratio: 0.55
- mol-smiles: "Fc1ccc2c(c1)-c1ccccc1[I+]2"
  result-modifier: "="
  selectivity ratio: 0.67
- mol-smiles: "Clc1cccc2c1-c1ccccc1[I+]2"
  result-modifier: "="
  selectivity ratio: 0.15
- mol-smiles: "COc1ccc2c(c1)-c1ccccc1[I+]2"
  result-modifier: "="
  selectivity ratio: 0.29
- mol-smiles: "c1ccc2c(c1)[I+]c1c-2ccc2ccccc12"
  result-modifier: "="
  selectivity ratio: 0.09
- mol-smiles: "Fc1cccc2c1-c1ccccc1[I+]2"
  result-modifier: "="
  selectivity ratio: 1
- mol-smiles: "Cc1ccc2c(c1)[I+]c1ccccc1-2.O=S(=O)([O-])C(F)(F)F"
  result-modifier: "="
  selectivity ratio: 0.05
- mol-smiles: "Fc1ccc2c(c1)[I+]c1ccccc1-2"
  result-modifier: "="
  selectivity ratio: 0.16
- mol-smiles: "c1ccc2c(c1)[I+]c1ccccc1-2"
  result-modifier: "="
  selectivity ratio: 0.78

---

# Lookup of reported selectivity ratio keyed by entry
- test-summary: Selectivity index, ratio of CC50 for human HepG2 cells in presence of 1% FBS to MIC for Klebsiella pneumoniae isolate 1
- Format: toxicity
- run-conditions: read-out: Selectivity Index

- mol-smiles: "Clc1ccc2c(c1)-c1ccccc1[I+]2"
  result-modifier: "="
  selectivity ratio: 0.47
- mol-smiles: "COc1ccc2c(c1)[I+]c1ccccc1-2"
  result-modifier: ">"
  selectivity ratio: 0.11
- mol-smiles: "Clc1ccc2c(c1)[I+]c1ccccc1-2"
  result-modifier: "="
  selectivity ratio: 0.06
- mol-smiles: "Fc1cccc2c1-c1ccccc1[I+]2"
  result-modifier: "="
  selectivity ratio: 0.51
- mol-smiles: "Cc1ccc2c(c1)[I+]c1ccccc1-2.O=S(=O)([O-])C(F)(F)F"
  result-modifier: "="
  selectivity ratio: 0.05
- mol-smiles: "Fc1ccc2c(c1)-c1ccccc1[I+]2"
  result-modifier: "="
  selectivity ratio: 0.33
- mol-smiles: "Fc1ccc2c(c1)[I+]c1ccccc1-2"
  result-modifier: "="
  selectivity ratio: 0.08
- mol-smiles: "c1ccc2c(c1)[I+]c1c-2ccc2ccccc12"
  result-modifier: "="
  selectivity ratio: 0.02
- mol-smiles: "COc1ccc2c(c1)-c1ccccc1[I+]2"
  result-modifier: ">"
  selectivity ratio: 0.29
- mol-smiles: "N#Cc1ccc2c(c1)[I+]c1ccccc1-2"
  result-modifier: ">"
  selectivity ratio: 0.05
- mol-smiles: "COc1cccc2c1-c1ccccc1[I+]2"
  result-modifier: ">"
  selectivity ratio: 0.55
- mol-smiles: "c1ccc2c(c1)[I+]c1ccccc1-2"
  result-modifier: "="
  selectivity ratio: 0.78
- mol-smiles: "N#Cc1ccc2c(c1)-c1ccccc1[I+]2"
  result-modifier: ">"
  selectivity ratio: 0.32
- mol-smiles: "Cc1cccc2c1-c1ccccc1[I+]2"
  result-modifier: "="
  selectivity ratio: 0.04
- mol-smiles: "Cc1ccc2c(c1)-c1ccccc1[I+]2"
  result-modifier: ">"
  selectivity ratio: 0.52
- mol-smiles: "Clc1cccc2c1-c1ccccc1[I+]2"
  result-modifier: "="
  selectivity ratio: 0.08

---

# Lookup of reported selectivity ratio keyed by entry
- test-summary: Selectivity index, ratio of CC50 for human HepG2 cells in presence of 1% FBS to MIC for Mycobacterium tuberculosis H37Rv ATCC 25618
- Assay type: toxicity
- run-conditions: read-out: Selectivity Index
measurement-type: selectivity ratio

- mol-smiles: "N#Cc1ccc2c(c1)-c1ccccc1[I+]2"
  test-result: 78
- mol-smiles: "FC(F)(F)c1cccc2c1-c1ccccc1[I+]2"
  test-result: 0.09
- mol-smiles: "Fc1ccc2c(c1)[I+]c1ccccc1-2"
  test-result: 20
- mol-smiles: "FC(F)(F)Oc1cccc2c1-c1ccccc1[I+]2"
  test-result: 0.21
- mol-smiles: "COc1ccc(Cl)c2c1[I+]c1ccccc1-2"
  test-result: 0.31
- mol-smiles: "c1ccc2c(c1)[I+]c1ccccc1-2"
  test-result: 96
- mol-smiles: "Fc1cccc2c1-c1cccc(Cl)c1[I+]2"
  test-result: 0.19
- mol-smiles: "Cc1cccc2c1-c1cccc(Cl)c1[I+]2"
  test-result: 0.22
- mol-smiles: "Fc1cccc2c1-c1c(F)cccc1[I+]2"
  test-result: 0.32
- mol-smiles: "Clc1ccc2c(c1)-c1ccccc1[I+]2"
  test-result: 30
- mol-smiles: "Cc1ccc2c(c1)-c1ccccc1[I+]2"
  test-result: 66
- mol-smiles: "Fc1ccc(Cl)c2c1[I+]c1ccccc1-2"
  test-result: 3.4
- mol-smiles: "Cc1ccc(Cl)c2c1[I+]c1ccccc1-2"
  test-result: 0.74

---

# Lookup of reported selectivity ratio keyed by entry
- test-summary: Selectivity index, ratio of CC50 for human HepG2 cells in presence of 1% FBS to MIC for Acinetobacter baumannii isolate 246-01-C
- Type: toxicity
- run-conditions: read-out: Selectivity Index
measurement-type: selectivity ratio

- mol-smiles: "Fc1ccc2c(c1)[I+]c1ccccc1-2"
  result-modifier: "="
  test-result: 2.6
- mol-smiles: "Cc1ccc2c(c1)[I+]c1ccccc1-2.O=S(=O)([O-])C(F)(F)F"
  result-modifier: "="
  test-result: 0.21
- mol-smiles: "Clc1ccc2c(c1)-c1ccccc1[I+]2"
  result-modifier: "="
  test-result: 3.7
- mol-smiles: "Fc1ccc2c(c1)-c1ccccc1[I+]2"
  result-modifier: "="
  test-result: 2.7
- mol-smiles: "Cc1ccc2c(c1)-c1ccccc1[I+]2"
  result-modifier: "="
  test-result: 4.2
- mol-smiles: "COc1cccc2c1-c1ccccc1[I+]2"
  result-modifier: "="
  test-result: 0.55
- mol-smiles: "N#Cc1ccc2c(c1)-c1ccccc1[I+]2"
  result-modifier: "="
  test-result: 0.13
- mol-smiles: "Cc1cccc2c1-c1ccccc1[I+]2"
  result-modifier: "="
  test-result: 1.2
- mol-smiles: "Fc1cccc2c1-c1ccccc1[I+]2"
  result-modifier: "<"
  test-result: 16
- mol-smiles: "COc1ccc2c(c1)[I+]c1ccccc1-2"
  result-modifier: "="
  test-result: 0.21
- mol-smiles: "N#Cc1ccc2c(c1)[I+]c1ccccc1-2"
  result-modifier: "="
  test-result: 0.19
- mol-smiles: "COc1ccc2c(c1)-c1ccccc1[I+]2"
  result-modifier: "="
  test-result: 0.58
- mol-smiles: "Clc1cccc2c1-c1ccccc1[I+]2"
  result-modifier: "<"
  test-result: 2.4
- mol-smiles: "c1ccc2c(c1)[I+]c1c-2ccc2ccccc12"
  result-modifier: "="
  test-result: 0.17
- mol-smiles: "c1ccc2c(c1)[I+]c1ccccc1-2"
  result-modifier: "="
  test-result: 6.3
- mol-smiles: "Clc1ccc2c(c1)[I+]c1ccccc1-2"
  result-modifier: "="
  test-result: 0.51

---

- test-summary: Selectivity index, ratio of CC50 for human HepG2 cells in presence of 1% FBS to MIC for Klebsiella pneumoniae ATCC 13883
- Format: toxicity
- run-conditions: read-out: Selectivity Index
# Lookup of reported selectivity ratio keyed by entry

- mol-smiles: "COc1ccc2c(c1)[I+]c1ccccc1-2"
  result-modifier: ">"
  selectivity ratio: 0.11
- mol-smiles: "Clc1ccc2c(c1)-c1ccccc1[I+]2"
  result-modifier: "="
  selectivity ratio: 1.9
- mol-smiles: "N#Cc1ccc2c(c1)[I+]c1ccccc1-2"
  result-modifier: "="
  selectivity ratio: 0.19
- mol-smiles: "N#Cc1ccc2c(c1)-c1ccccc1[I+]2"
  result-modifier: "="
  selectivity ratio: 0.63
- mol-smiles: "Cc1ccc2c(c1)-c1ccccc1[I+]2"
  result-modifier: "="
  selectivity ratio: 0.52
- mol-smiles: "Cc1cccc2c1-c1ccccc1[I+]2"
  result-modifier: "="
  selectivity ratio: 0.14
- mol-smiles: "Clc1ccc2c(c1)[I+]c1ccccc1-2"
  result-modifier: "="
  selectivity ratio: 0.13

---

# Lookup of reported selectivity ratio keyed by entry
- test-summary: Selectivity index, ratio of CC50 for human HepG2 cells in presence of 1% FBS to MIC for Escherichia coli N11281
- Assay type: toxicity
- run-conditions: read-out: Selectivity Index
measurement-type: selectivity ratio

- mol-smiles: "COc1cccc2c1-c1ccccc1[I+]2"
  result-modifier: ">"
  test-result: 0.55
- mol-smiles: "c1ccc2c(c1)[I+]c1c-2ccc2ccccc12"
  result-modifier: "="
  test-result: 0.04
- mol-smiles: "COc1ccc2c(c1)[I+]c1ccccc1-2"
  result-modifier: ">"
  test-result: 0.11
- mol-smiles: "Cc1ccc2c(c1)[I+]c1ccccc1-2.O=S(=O)([O-])C(F)(F)F"
  result-modifier: "="
  test-result: 0.11
- mol-smiles: "Clc1cccc2c1-c1ccccc1[I+]2"
  result-modifier: "="
  test-result: 0.31
- mol-smiles: "Clc1ccc2c(c1)[I+]c1ccccc1-2"
  result-modifier: "="
  test-result: 0.26
- mol-smiles: "Fc1ccc2c(c1)[I+]c1ccccc1-2"
  result-modifier: "="
  test-result: 0.08
